- testedOn: rhCathepsin C/DPP1 (Homo sapiens (Human), UniProt P53634)
- Sequence (P53634 25-134): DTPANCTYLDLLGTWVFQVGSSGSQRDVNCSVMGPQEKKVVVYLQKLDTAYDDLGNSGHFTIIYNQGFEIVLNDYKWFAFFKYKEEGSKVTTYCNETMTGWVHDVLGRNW
- Sequence (P53634 231-394): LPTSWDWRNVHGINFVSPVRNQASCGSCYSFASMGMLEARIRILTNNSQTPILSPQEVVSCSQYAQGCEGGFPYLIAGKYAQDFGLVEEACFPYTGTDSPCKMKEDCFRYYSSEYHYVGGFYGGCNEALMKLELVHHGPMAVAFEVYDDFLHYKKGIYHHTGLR
- Sequence (P53634 395-463): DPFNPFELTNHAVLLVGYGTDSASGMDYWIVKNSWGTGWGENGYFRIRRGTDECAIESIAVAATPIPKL
- assayRemarks: Test for inhibition of DPP1 enzyme activity
- Format: biochemical
- cond: recombinant human cathepsin C/DPP1; substrate Gly-Arg-AMC
- Excerpt: Recombinant human cathepsin, rhCathepsin C/DPP1, purchased from R&D systems Gly-Arg-AMC (hydrOCHloride), purchased from Cayman chemical […]
pIC50: −log10 of the molar value.
measuredEndpoint: pIC50

C[C@H]1OC(=O)c2ccc(-c3ccc(C[C@@H](C#N)NC(=O)[C@@H]4CNCCCO4)c(F)c3)cc21 :: 8.64
CC1CNC[C@@H](C(=O)N[C@H](C#N)Cc2ccc(-c3ccc4oc(=O)n(C)c4c3)cc2F)OC1 (stereo partly shown) :: 8.49
CCN1CCC(=O)c2ccc(-c3ccc(C[C@@H](C#N)NC(=O)[C@@H]4CNCCCO4)c(F)c3)cc21 :: 8.64
CN1CC2(C1)OCc1ccc(-c3ccc(C[C@@H](C#N)NC(=O)[C@@H]4CNCCCO4)cc3)cc12 :: 8.44
N#C[C@H](Cc1ccc(-c2ccc3oc(=O)n(C(F)F)c3c2)cc1)NC(=O)[C@@H]1CNCCCO1 :: 8.41

(I) Cn1c(=O)oc2ccc(-c3ccc(C[C@@H](C#N)NC(=O)[C@@H]4CNCC5(CC5)CO4)c(F)c3)cc21
(II) N#C[C@H](Cc1ccc(-c2ccc3c(c2)C2(CN(C4COC4)C2)OC3)cc1F)NC(=O)[C@@H]1CNCCCO1
Determine, for I and II , which has the greater value of pIC50. # reply format: chosen label
I
(I: 9.35, II: 8.66)

---

- testedOn: DPP1 (Homo sapiens (Human), UniProt P53634)
- Sequence (P53634 25-463): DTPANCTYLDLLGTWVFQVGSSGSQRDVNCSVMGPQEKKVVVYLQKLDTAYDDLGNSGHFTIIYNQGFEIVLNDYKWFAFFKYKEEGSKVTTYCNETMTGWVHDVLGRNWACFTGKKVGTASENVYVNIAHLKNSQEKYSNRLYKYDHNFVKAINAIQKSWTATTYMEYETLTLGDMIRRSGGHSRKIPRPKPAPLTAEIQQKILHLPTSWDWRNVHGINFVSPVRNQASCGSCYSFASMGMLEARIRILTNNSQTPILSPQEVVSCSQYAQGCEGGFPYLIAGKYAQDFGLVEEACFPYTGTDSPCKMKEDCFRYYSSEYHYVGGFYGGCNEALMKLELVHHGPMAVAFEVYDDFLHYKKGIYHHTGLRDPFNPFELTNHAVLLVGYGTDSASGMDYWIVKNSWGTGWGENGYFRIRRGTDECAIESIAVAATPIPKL
- assayRemarks: DPP1 activity inhibition test on U937 cells
- Type: cell-based
- cond: U-937, 50 nM compound, substrate h-Gly-phe-AFC
measuredEndpoint: inhibition at 0.05 µM

Some compounds with known inhibition at 0.05 µM results, for comparison:
CN1CCC2(CC1)OCc1ccc(-c3ccc(C[C@@H](C#N)NC(=O)[C@@H]4CNCCCO4)cc3)cc12 :: 30 to 75%
CNS(=O)(=O)c1ccc(-c2ccc(C[C@@H](C#N)NC(=O)[C@@H]3CNCCCO3)cc2)cc1 :: < 30%
Cn1cnc(-n2c(=O)oc3ccc(-c4ccc(C[C@@H](C#N)NC(=O)[C@@H]5CNCCCO5)c(F)c4)cc32)n1 :: < 30%
N#C[C@H](Cc1ccc(-c2ccc3c(c2)C=CC32CCN(C3COC3)CC2)cc1F)NC(=O)[C@@H]1CNCCCO1 :: 75 to 100%
N#C[C@H](Cc1ccc(-c2ccc3c(n2)C2(CCN(C4COC4)CC2)OC3)cc1)NC(=O)[C@@H]1CNCCCO1 :: 30 to 75%

Now turn to the next compound.
Indicate the recorded inhibition at 0.05 µM value for this compound: Cn1c(=O)oc2ccc(-c3ccc(C[C@@H](C#N)NC(=O)[C@@H]4CNCc5ccccc5O4)cc3)cc21
30 to 75%

---

- testedOn: rhCathepsin C/DPP1 (Homo sapiens (Human), UniProt P53634)
- assayRemarks: Test for inhibition of DPP1 enzyme activity
- cond: recombinant human cathepsin C/DPP1; substrate Gly-Arg-AMC
pIC50: −log10 of the molar value.
measuredEndpoint: pIC50

Some compounds with known pIC50 results, for comparison:
N#C[C@H](Cc1ccc(-c2ccc3oc(=O)n(CF)c3c2)cc1)NC(=O)[C@@H]1CNCCCO1 [Compound D02] :: 8.39
CC1OC(=O)c2ccc(-c3ccc(C[C@@H](C#N)NC(=O)[C@@H]4CNCCCO4)c(F)c3)cc21 (some centres unmarked) [Compound D73] :: 8.60
CN1CCC(=O)c2ccc(-c3ccc(C[C@@H](C#N)NC(=O)[C@@H]4CNCCCO4)cc3)cc21 [Compound D125] :: 8.17
N#C[C@H](Cc1ccc(-c2ccc3c(c2)C2(CCN(C4COC4)CC2)OC3)cc1)NC(=O)[C@@H]1CNCCCO1 [Compound D26] :: 8.51
C[C@H]1OC(=O)c2ccc(-c3ccc(C[C@@H](C#N)NC(=O)[C@@H]4CNCCCO4)[se]3)cc21 [Compound D126] :: 7.97
CN1CCC(=O)c2ccc(-c3ccc(C[C@@H](C#N)NC(=O)[C@@H]4CNCCCO4)c(F)c3)cc21 [Compound D118] :: 8.80

(P) CN1CC2(C1)OC(=O)c1ccc(-c3ccc(C[C@@H](C#N)NC(=O)[C@@H]4CNCCCO4)cc3)cc12 [Compound D19]
(Q) C[C@H]1CNC[C@@H](C(=O)N[C@H](C#N)Cc2ccc(-c3ccc4c(c3)N(C)CCC4=O)cc2F)OC1 [Compound D124]
I'm curious whether P or Q has the smaller pIC50 number. Which is it? # reply format: chosen label
Q
(Q: 7.95, P: 8.46)

(A) N#C[C@H](Cc1ccc(-c2ccc3c(c2)CCC3=O)cc1F)NC(=O)[C@@H]1CNCCCO1 [Compound D60]
(B) CN1CC(n2c(=O)sc3ccc(-c4ccc(C[C@@H](C#N)NC(=O)[C@@H]5CNCCCO5)c(F)c4)cc32)C1 [Compound D70]
I'm curious whether A or B has the smaller pIC50 number. Which is it? # reply format: chosen label
A
(A: 8.43, B: 9.24)

(A) C[C@H]1OC(=O)c2ccc(-c3ccc(C[C@@H](C#N)NC(=O)[C@@H]4CNC[C@@H](F)CO4)c(F)c3)cc21 [Compound D123]
(B) [2H]C([2H])([2H])[C@H]1OC(=O)c2ccc(-c3ccc(C[C@@H](C#N)NC(=O)[C@@H]4CNCCCO4)c(F)c3)cc21 [Compound D127]
I'm curious whether A or B has the smaller pIC50 number. Which is it? # reply format: chosen label
B
(B: 8.38, A: 8.85)

(A) C[C@@H]1OC(=O)c2ccc(-c3ccc(C[C@@H](C#N)NC(=O)[C@@H]4CNCCCO4)c(F)c3)cc21 [Compound D74]
(B) N#C[C@H](Cc1ccc(-c2ccc3c(c2)CCC3=O)cc1)NC(=O)[C@@H]1CNCCCO1 [Compound D09]
I'm curious whether A or B has the smaller pIC50 number. Which is it? # reply format: chosen label
B

---

Quick reference for inhibition at 0.05 µM among some compounds
- testedOn: DPP1 (Homo sapiens (Human), UniProt P53634)
- assayRemarks: DPP1 activity inhibition test on U937 cells
- Type: cell-based
- cond: U-937, 50 nM compound, substrate h-Gly-phe-AFC

Some compounds with known inhibition at 0.05 µM results, for comparison:
Cn1cc(-n2c(=O)oc3ccc(-c4ccc(C[C@@H](C#N)NC(=O)[C@@H]5CNCCCO5)c(F)c4)cc32)cn1 [Compound D63] :: 75 to 100%
N#C[C@H](Cc1ccc(-c2ccc3c(c2)C2(COC2)OC3)cc1)NC(=O)[C@@H]1CNCCCO1 [Compound D22] :: 75 to 100%
CN1CCC2(C1)OCc1ccc(-c3ccc(C[C@@H](C#N)NC(=O)[C@@H]4CNCCCO4)c(F)c3)cc12 (stereo partly shown) [Compound D86] :: 75 to 100%

Now turn to the next compound.
Indicate the recorded inhibition at 0.05 µM value for this compound: Cn1c(=O)oc2ncc(-c3ccc(C[C@@H](C#N)NC(=O)[C@@H]4CNCCCO4)c(F)c3)nc21 [Compound D66]
< 30%

---

- testedOn: UniProt P53634
- assayRemarks: DPP1 activity inhibition test on U937 cells
- Type: cell-based
- cond: U-937, 50 nM compound, substrate h-Gly-phe-AFC
- Description: After incubation at 37° C. for 1 h, add h-Gly-phe-AFC (10 μL) to each well and start reaction.
Quick reference for inhibition at 0.05 µM among some compounds

Some compounds with known inhibition at 0.05 µM results, for comparison:
CO[C@H](C)Cn1c(=O)oc2ccc(-c3ccc(C[C@@H](C#N)NC(=O)[C@@H]4CNCCCO4)cc3)cc21 [Compound D35] :: 30 to 75%
CN1CC(n2c(=O)oc3ccc(-c4ccc(C[C@@H](C#N)NC(=O)[C@@H]5CNCCCO5)c(F)c4)cc32)C1 [Compound D67] :: 75 to 100%
Cn1c(=O)oc2ccc(-c3ccc(C[C@@H](C#N)NC(=O)[C@@H]4COCC[C@@H]4N)cc3)cc21 [Compound D52] :: 30 to 75%

Indicate the recorded inhibition at 0.05 µM value for this compound: Cn1c(=O)oc2ccc(-c3ccc(C[C@@H](C#N)NC(=O)[C@@H]4CNCC5(CC5)CO4)nn3)cc21 [Compound D48]
75 to 100%

Indicate the recorded inhibition at 0.05 µM value for this compound: C[C@H](O)Cn1c(=O)oc2ccc(-c3ccc(C[C@@H](C#N)NC(=O)[C@@H]4CNCCCO4)cc3)cc21 [Compound D32]
30 to 75%

Indicate the recorded inhibition at 0.05 µM value for this compound: Cn1c(=O)oc2ccc(-c3ccc(C[C@@H](C#N)NC(=O)[C@@H]4CNC[C@H](F)CO4)cc3)cc21 [Compound D54]
30 to 75%

Indicate the recorded inhibition at 0.05 µM value for this compound: CC1(C)Cc2cc(-c3ccc(C[C@@H](C#N)NC(=O)[C@@H]4CNCCCO4)c(F)c3)ccc2C1=O [Compound D117]
75 to 100%
